Value source: patent US5198445A

- Tested on: Enterobacter aerogenes (Ea)
- assayText: MIC in nutrient agar, Enterobacter aerogenes
- Type: cell-based, Enterobacter aerogenes ATCC 13048
- cond: Klebsiella aerogenes, pH 8.2, read-out: Minimum Inhibitory Concentration, Ea
measuredEndpoint: MIC

Request - read-out MIC | tested on Enterobacter aerogenes (Ea) | compound CS/C=C(/Cl)C#N 500 µg/mL

Subsequent entry: CSC=C(Cl)C#N 10 µg/mL

Proceed to CS/C=C(\Cl)C#N 10 µg/mL

Also need CCCCCCCCCCSC#CC#N , thanks. > 500 µg/mL

* * *

- Test system: Staphylococcus aureus (Sa)
- assayText: MIC in nutrient agar, Staphylococcus aureus
- Format: cell-based, Staphylococcus aureus ATCC 6538
- cond: Staphylococcus aureus, pH 8.2; read-out: Minimum Inhibitory Concentration, Sa
measuredEndpoint: MIC

May I ask what MIC has been recorded for CCCCCCCCCCSC#CC#N ? 25 µg/mL

Same again, this time with N#CC#CSC1CCCC1 < 10 µg/mL

Same read-out for CCCCCCCCCCCCSC#CC#N ? 25 µg/mL

Next: CSC#CC#N 5 µg/mL

Now the same for N#CC#CSc1ccc(Cl)cc1 25 µg/mL

* * *

- System: Pseudomonas aeruginosa (PRD-10)
- assayText: MIC in nutrient agar, Pseudomonas aeruginosa PRD-10
- Format: cell-based, Pseudomonas aeruginosa ATCC 15442
- cond: Pseudomonas aeruginosa, pH 6.8, read-out: Minimum Inhibitory Concentration, PRD
Field: MIC. Provide a value for each of the compounds that follow.
Please state the figure in µg/mL; there is no need to write the unit.

Given the entry CSC=C(Cl)C#N , what MIC was observed with Pseudomonas aeruginosa (PRD-10)? 50

And then CS/C=C(\Cl)C#N , what is it? 50

* * *

- System: Trichoderma viride (Tv)
- assayText: MIC in malt yeast agar, Trichoderma viride
- Assay type: cell-based, Trichoderma viride ATCC 8678
- cond: malt yeast agar; read-out: Minimum Inhibitory Concentration, Tv
Please go through the items and note down their MIC.
Return type: number; implicit unit µg/mL.

GET /values?readout=MIC&item= N#CC#CSc1ccc(Cl)cc1 [D, 3-(4-chlorophenylthio)-2-propynenitrile] 2.5

Likewise for CSC#CC#N [Compound A, 3-methylthio-2-propynenitrile] ? 0.25

And the next one, CCCCCCCCCCSC#CC#N [E, 3-decylthio-2-propynenitrile] ? 500

Can you check N#CC#CSC1CCCC1 [C, 3-cyclopentylthio-2-propynenitrile] next? 2.5

* * *

Record form. Attribute: MIC. Fill in for each entry.
- System: Pseudomonas aeruginosa (PRD-10)
- assayText: MIC in nutrient agar, Pseudomonas aeruginosa PRD-10
- Format: cell-based, Pseudomonas aeruginosa ATCC 15442
- cond: Pseudomonas aeruginosa, pH 8.2; read-out: Minimum Inhibitory Concentration, PRD
Answer format: numeric, µg/mL implied, no suffix.

Look up MIC with Pseudomonas aeruginosa (PRD-10) for this molecule: CCCCCCCCCCCCSC#CC#N 100

For CCCCCCCCCCSC#CC#N then? 25

Same for N#CC#CSC1CCCC1 250

Again, but for CCSC#CC#N 25

Please answer likewise for CSC#CC#N 5

Consider next the molecule N#CC#CSc1ccc(Cl)cc1 in the same way. 100

* * *

- Test system: Klebsiella pneumoniae (Kp)
- assayText: MIC in nutrient agar, Klebsiella pneumoniae
- Format: cell-based, Klebsiella pneumoniae ATCC 8308
- cond: pH 6.8, read-out: Minimum Inhibitory Concentration, Kp
Consider the following compounds; for each one, report its MIC.
Just the number please, in µg/mL, no unit attached.

I would be grateful if you could share the reported MIC for CCSC#CC#N . 5

Now the same for CSC=C(Cl)C#N 50

* * *

- Tested on: Bacillus subtilis (Bs)
- assayText: MIC in nutrient agar, Bacillus subtilis
- Type: cell-based, Bacillus subtilis ATCC 8473
- cond: Bacillus subtilis, pH 8.2, read-out: Minimum Inhibitory Concentration, Bs
- Procedure: The minimum inhibitory concentration (MIC) for the compounds listed in Table I is determined for 9 bacteria, using nutrient agar, and 7 yeast and fungi, using malt yeast agar. A one percent solution of the test compound is prepared in a mixture of acetone and water. […] The inoculated petri plates are incubated at 30° C. for 48 hours and then read to determine if the test compound which is incorporated into the agar prevented growth of the respective bacteria. […]
Field: MIC. Provide a value for each of the molecules that follow.
Put down the number, then write its unit next to it.

What value of measured MIC is listed for CSC=C(Cl)C#N [Compound G, 2-chloro-3-(methylthio)-2-propenenitrile] ? 10 mg/L

What about this molecule? CCSC#CC#N [B, 3-ethylthio-2-propynenitrile] 25 mg/L

Also CS/C=C(\Cl)C#N [Compound I] ? 10 mg/L

Quick one: CS/C=C(/Cl)C#N [Compound H] 500 mg/L

* * *

- Tested on: Trichoderma viride (Tv)
- assayText: MIC in malt yeast agar, Trichoderma viride
- Format: cell-based, Trichoderma viride ATCC 8678
- cond: read-out: Minimum Inhibitory Concentration, Tv
measuredEndpoint: MIC (µg/mL)
Value expressed in µg/mL; do not type the unit.

Would you mind telling me what MIC value was observed for CSC=C(Cl)C#N ? 100

Another compound to check: CCSC#CC#N 10

Subsequent entry: CS/C=C(/Cl)C#N 250

Okay, and CS/C=C(\Cl)C#N ? 50

* * *

Give MIC for every item shown.
- Test system: Klebsiella pneumoniae (Kp)
- assayText: MIC in nutrient agar, Klebsiella pneumoniae
- Format: cell-based, Klebsiella pneumoniae ATCC 8308
- cond: pH 6.8, read-out: Minimum Inhibitory Concentration, Kp
Quick reminder: number only, in mg/L, skip the unit.

Notebook entry, Klebsiella pneumoniae (Kp) assay: MIC of CSC#CC#N = ? 2.5

CS/C=C(\Cl)C#N , same question. 50

* * *

For each of the compounds below, state its MIC.
- Test system: Pseudomonas aeruginosa (Pa)
- assayText: MIC in nutrient agar, Pseudomonas aeruginosa
- Assay type: cell-based, Pseudomonas aeruginosa ATCC 10145
- cond: pH 6.8, read-out: Minimum Inhibitory Concentration, Pa
// note: answer is a bare numeric in µg/mL

Bench note: what MIC did CSC=C(Cl)C#N [Compound G, 2-chloro-3-(methylthio)-2-propenenitrile] show? 50

Try the compound CS/C=C(\Cl)C#N [Compound I] 50

* * *

- System: Klebsiella pneumoniae (Kp)
- assayText: MIC in nutrient agar, Klebsiella pneumoniae
- Type: cell-based, Klebsiella pneumoniae ATCC 8308
- cond: pH 6.8, read-out: Minimum Inhibitory Concentration, Kp
measuredEndpoint: MIC

Quick one: MIC of N#CC#CSC1CCCC1 ? < 10 µg/mL

Entry CCCCCCCCCCSC#CC#N please > 500 µg/mL

Ok, now N#CC#CSc1ccc(Cl)cc1 < 10 µg/mL

* * *

- Tested on: Pseudomonas aeruginosa (Pa)
- assayText: MIC in nutrient agar, Pseudomonas aeruginosa
- Assay type: cell-based, Pseudomonas aeruginosa ATCC 10145
- cond: pH 6.8, read-out: Minimum Inhibitory Concentration, Pa
measuredEndpoint: MIC

I would be grateful if you could share the reported MIC for CS/C=C(/Cl)C#N . > 500 µg/mL

Another molecule: CCCCCCCCCCSC#CC#N > 500 µg/mL

Would you kindly repeat that for CCCCCCCCCCCCSC#CC#N ? > 500 µg/mL
